The reported numbers originate from ChEMBL document CHEMBL3817817.

test-target: Tyrosine-protein phosphatase non-receptor type 1 (Homo sapiens, UniProt P18031)
Sequence (P18031 whole entry, the tested form may be a part): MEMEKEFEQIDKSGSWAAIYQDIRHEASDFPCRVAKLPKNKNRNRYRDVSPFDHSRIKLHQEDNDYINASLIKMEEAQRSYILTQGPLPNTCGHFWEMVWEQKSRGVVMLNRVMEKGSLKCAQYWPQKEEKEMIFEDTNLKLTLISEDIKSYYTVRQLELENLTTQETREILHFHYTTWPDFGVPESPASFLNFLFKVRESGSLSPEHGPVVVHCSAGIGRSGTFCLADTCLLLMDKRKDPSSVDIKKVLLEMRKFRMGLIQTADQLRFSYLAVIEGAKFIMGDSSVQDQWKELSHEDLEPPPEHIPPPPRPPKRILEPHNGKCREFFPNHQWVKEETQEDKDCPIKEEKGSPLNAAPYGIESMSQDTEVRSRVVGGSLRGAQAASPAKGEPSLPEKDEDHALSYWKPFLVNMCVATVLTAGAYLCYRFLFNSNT
procedure-summary: Inhibition of human recombinant PTP1B catalytic domain expressed in Escherichia coli BL21 (DE3) cells using p-Nitrophenyl phosphate as substrate by microplate reader method
value-type: pIC50
One number for each entry, as −log10 of the molar value.

QUERY: For COC(=O)[C@H](Cc1ccc(O)cc1)n1cc(CO[C@H]2[C@@H](OCc3ccccc3)[C@@H](OC)O[C@H](COCc3ccccc3)[C@H]2OCc2cn([C@@H](Cc3ccc(O)cc3)C(=O)OC)nn2)nn1 , what is its reported pIC50?
RESULT: 5.02

* * *

test-target: Tyrosine-protein phosphatase non-receptor type 2 (Homo sapiens, UniProt P17706)
Sequence (P17706 whole entry): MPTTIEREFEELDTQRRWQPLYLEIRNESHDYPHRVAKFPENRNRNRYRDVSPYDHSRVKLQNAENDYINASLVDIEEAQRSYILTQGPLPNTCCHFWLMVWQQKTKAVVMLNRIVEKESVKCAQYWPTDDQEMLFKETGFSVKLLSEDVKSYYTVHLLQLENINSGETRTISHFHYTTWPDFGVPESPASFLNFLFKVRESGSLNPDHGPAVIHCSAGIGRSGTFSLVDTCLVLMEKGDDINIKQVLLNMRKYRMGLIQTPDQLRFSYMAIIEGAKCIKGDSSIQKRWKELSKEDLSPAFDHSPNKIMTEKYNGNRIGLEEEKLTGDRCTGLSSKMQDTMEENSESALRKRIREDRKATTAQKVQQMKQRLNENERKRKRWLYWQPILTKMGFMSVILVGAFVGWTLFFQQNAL
procedure-summary: Inhibition of recombinant TCPTP (unknown origin) at pH 7
value-type: pKi
Numbers only, as −log10 of the molar value.

QUERY: What pKi appears in the records for this compound with Tyrosine-protein phosphatase non-receptor type 2 (Homo sapiens, UniProt P17706)? O=C(O)C(=O)Nc1sc2c(c1C(=O)O)CCN(CCc1ccccc1)C2
RESULT: 5.14
